assay: Inhibition of human phosphoenolpyruvate carboxykinase (PEPCK).
Recorded IC50 for the following compounds
Lab book: enter the figure in µM, no units written.

Recorded results for 8 compounds are shown here.
>>> quantitative_readout("CCCn1c(=O)n(Cc2ccccc2F)c(=O)c2[nH]c(Cc3ccc(NC(C)=O)cc3)nc21")
1.49
>>> quantitative_readout("CC(=O)Nc1ccc(Cc2nc3c(=O)n(Cc4ccccc4F)c(=O)n(CCC(=O)O)c3[nH]2)cc1")
2
>>> quantitative_readout("CCCCn1c(=O)n(Cc2ccccc2F)c(=O)c2[nH]c(Cc3ccc(NC(C)=O)cc3)nc21")
2.11
>>> quantitative_readout("CCCCCCn1c(=O)n(Cc2ccccc2F)c(=O)c2[nH]c(Cc3ccc(NC(C)=O)cc3)nc21")
8.9
>>> quantitative_readout("CC(=O)Nc1ccc(Cc2nc3c(=O)n(Cc4ccccc4F)c(=O)n(CC4CCC4)c3[nH]2)cc1")
1.18
>>> quantitative_readout("CC(=O)Nc1ccc(Cc2nc3c(=O)n(Cc4ccccc4F)c(=O)n(CC4CCCO4)c3[nH]2)cc1 (configuration not stated)")
5.7
>>> quantitative_readout("CC(=O)Nc1ccc(Cc2nc3c(=O)n(Cc4ccccc4F)c(=O)n(CC4CC4(CO)CO)c3[nH]2)cc1 (configuration not stated)")
2
>>> quantitative_readout("CC(=O)Nc1ccc(Cc2nc3c(=O)n(Cc4ccccc4F)c(=O)n(CCCC(N)=O)c3[nH]2)cc1")
6.6

`CC(=O)Nc1ccc(Cc2nc3c(=O)n(Cc4ccccc4F)c(=O)n(CCCO)c3[nH]2)cc1` yielded IC50 of 5.45

Sample CC(=O)Nc1ccc(Cc2nc3c(=O)n(Cc4ccccc4F)c(=O)n(CC4C[C@@H]4CO)c3[nH]2)cc1 (some centres not stated) ; IC50 observed: 2.27

Lab note: measured IC50 of CC(=O)Nc1ccc(Cc2nc3c([nH]2)c(=O)n(Cc2ccccc2F)c(=O)n3CC2C[C@@H]2C)cc1 (some centres not stated) was 1.82

For record `CC(=O)Nc1ccc(Cc2nc3c([nH]2)c(=O)n(Cc2ccccc2F)c(=O)n3CC2CC2)cc1` the listed IC50 is 0.69

Form: compound = `CC(=O)Nc1ccc(Cc2nc3c(=O)n(Cc4ccccc4F)c(=O)n(CCCC(=O)O)c3[nH]2)cc1` ; IC50 = 1.95

Record COC(=O)[C@H]1CC1Cn1c(=O)n(Cc2ccccc2F)c(=O)c2[nH]c(Cc3ccc(NC(C)=O)cc3)nc21 (some centres not stated) , field IC50: 3

Reported IC50 ( `CC(=O)Nc1ccc(Cc2nc3c([nH]2)c(=O)n(Cc2ccccc2F)c(=O)n3CC(C)C)cc1` ) = 2.02

Sure, the documented IC50 for CC(=O)Nc1ccc(Cc2nc3c(=O)n(Cc4ccccc4F)c(=O)n(CC4CCCCO4)c3[nH]2)cc1 (configuration not stated) is 4.5

Sample `CC(=O)Nc1ccc(Cc2nc3c(=O)n(Cc4ccccc4F)c(=O)n(CC4CCCC4)c3[nH]2)cc1` ; IC50 observed: 3.05

====

assay: Inhibition of human phosphoenolpyruvate carboxykinase (PEPCK).
As shown below, each of these molecules has a reported IC50 value.
Just the number in nM, nothing appended.

Before answering, review these 2 worked examples.
>>> quantitative_readout("CC(=O)Nc1ccc(Cc2nc3c(=O)n(Cc4ccccc4F)c(=O)n(CCCCO)c3[nH]2)cc1")
2850
>>> quantitative_readout("CC(=O)Nc1ccc(Cc2nc3c(=O)n(Cc4ccccc4F)c(=O)n(Cc4ccoc4)c3[nH]2)cc1")
4500

API: the following record is the query input.
IC50 in this record for CC(=O)Nc1ccc(Cc2nc3c(=O)n(Cc4ccccc4F)c(=O)n(CC4C[C@@H]4C(=O)O)c3[nH]2)cc1 (stereo partly drawn) : 560
